# Test system: ISG54 ISRE-luc reporter
# Protocol summary: ISG54 ISRE-luc reporter activation in HEK293 (SZ14) cells, screen for STING agonists
# Assay type: cell-based
# Condition context: digitonin buffer, 5 hours, read-out: IRF EC50
# Method: ISG54 or NF-κβ activity was determined using the Steady-glo buffer system (Promega), and are expressed as EC50 values summarized in Table 3 below. […] This calculation is applicable for compounds with enzyme inhibition activity, as the baseline for an untreated sample may be set at 100% enzymatic activity, and therefore % inhibition is evaluated based on this 100% maximal basis. […]
Metric: EC50

(Q) Identify the reported EC50 for the following entry. CCCCCCCCCCOc1ccc(C(=O)Oc2ccc(CSP3(=O)OC[C@H]4O[C@@H](n5cnc6c(N)ncnc65)[C@H](F)[C@@H]4OP(=O)(O)OC[C@H]4O[C@@H](n5ccc(=O)[nH]c5=O)[C@H](F)[C@@H]4O3)cc2)c(C)c1 (some centres unmarked) [Cmd 25]
(A) < 50 nM

(Q) Read off the recorded EC50 for CCCCCCCCCCOc1ccc(C(=O)Nc2ccc(CSP3(=O)OC[C@H]4O[C@@H](n5cnc6c(N)ncnc65)[C@H](F)[C@@H]4OP(=O)(O)OC[C@H]4O[C@@H](n5ccc(=O)[nH]c5=O)[C@H](F)[C@@H]4O3)cc2)cc1 (some centres unmarked) [Cmd 30]
(A) 500 to 1000 nM

(Q) Provide only the value of recorded EC50 for CCCCCCCCCCOC(=O)Oc1ccc(CSP2(=O)OC[C@H]3O[C@@H](n4cnc5c(N)ncnc54)[C@H](F)[C@@H]3OP(=O)(O)OC[C@H]3O[C@@H](n4ccc(=O)[nH]c4=O)[C@H](F)[C@@H]3O2)cc1 (some centres unmarked) [Cmd 26]
(A) < 50 nM

(Q) Please supply the value of reported EC50 for the item CCCCCCCCOc1ccc(C(=O)Oc2ccc(CSP3(=O)OC[C@H]4O[C@@H](n5cnc6c(N)ncnc65)[C@H](F)[C@@H]4OP(=O)(O)OC[C@H]4O[C@@H](n5ccc(=O)[nH]c5=O)[C@H](F)[C@@H]4O3)cc2)cc1.N (some centres unmarked) [Cmd 12]
(A) < 50 nM

(Q) Provide measured EC50 value, entry: CCCCCCCCCCNC(=O)Oc1ccc(CSP2(=O)OC[C@H]3O[C@@H](n4cnc5c(N)ncnc54)[C@H](F)[C@@H]3OP(=O)(O)OC[C@H]3O[C@@H](n4ccc(=O)[nH]c4=O)[C@H](F)[C@@H]3O2)cc1 (some centres unmarked) [Cmd 32]
(A) 50 to 500 nM

(Q) Answer with reported EC50 of CCCCCCCCCCOc1ccc(C(=O)Oc2ccc(CS[P@@]3(=O)OC[C@H]4O[C@@H](n5cnc6c(N)ncnc65)[C@H](F)[C@@H]4OP(=O)(O)OC[C@H]4O[C@@H](n5ccc(=O)[nH]c5=O)[C@H](F)[C@@H]4O3)cc2)cc1 (single isomer, unassigned) [Cmd 1B]
(A) < 50 nM

(Q) Look up EC50 of CCCCCCOc1ccc(C(=O)Oc2ccc(CSP3(=O)OC[C@H]4O[C@@H](n5cnc6c(N)ncnc65)[C@H](F)[C@@H]4OP(=O)(O)OC[C@H]4O[C@@H](n5ccc(=O)[nH]c5=O)[C@H](F)[C@@H]4O3)cc2)cc1.N (some centres unmarked) [Cmd 14] and report it.
(A) < 50 nM

(Q) Quickly give me recorded EC50 for CCCCCCCCCCOc1ccc(C(=O)Oc2ccc(CSP3(=O)OC[C@H]4O[C@@H](n5cnc6c(N)ncnc65)[C@H](F)[C@@H]4OP(=O)(SCc4ccc(OC(=O)c5ccc(OCCCCCCCCCC)cc5)cc4)OC[C@H]4O[C@@H](n5ccc(=O)[nH]c5=O)[C@H](F)[C@@H]4O3)cc2)cc1 (some centres unmarked) [Cmd 4]
(A) 1000 to 2000 nM

Cited source for all entries: patent US11033569B2
